Molecular target: EGFR (D746-750) (Homo sapiens, UniProt P00533, DEL746-750)
Sequence (P00533 with tags, fused parts or gaps DEL746-750): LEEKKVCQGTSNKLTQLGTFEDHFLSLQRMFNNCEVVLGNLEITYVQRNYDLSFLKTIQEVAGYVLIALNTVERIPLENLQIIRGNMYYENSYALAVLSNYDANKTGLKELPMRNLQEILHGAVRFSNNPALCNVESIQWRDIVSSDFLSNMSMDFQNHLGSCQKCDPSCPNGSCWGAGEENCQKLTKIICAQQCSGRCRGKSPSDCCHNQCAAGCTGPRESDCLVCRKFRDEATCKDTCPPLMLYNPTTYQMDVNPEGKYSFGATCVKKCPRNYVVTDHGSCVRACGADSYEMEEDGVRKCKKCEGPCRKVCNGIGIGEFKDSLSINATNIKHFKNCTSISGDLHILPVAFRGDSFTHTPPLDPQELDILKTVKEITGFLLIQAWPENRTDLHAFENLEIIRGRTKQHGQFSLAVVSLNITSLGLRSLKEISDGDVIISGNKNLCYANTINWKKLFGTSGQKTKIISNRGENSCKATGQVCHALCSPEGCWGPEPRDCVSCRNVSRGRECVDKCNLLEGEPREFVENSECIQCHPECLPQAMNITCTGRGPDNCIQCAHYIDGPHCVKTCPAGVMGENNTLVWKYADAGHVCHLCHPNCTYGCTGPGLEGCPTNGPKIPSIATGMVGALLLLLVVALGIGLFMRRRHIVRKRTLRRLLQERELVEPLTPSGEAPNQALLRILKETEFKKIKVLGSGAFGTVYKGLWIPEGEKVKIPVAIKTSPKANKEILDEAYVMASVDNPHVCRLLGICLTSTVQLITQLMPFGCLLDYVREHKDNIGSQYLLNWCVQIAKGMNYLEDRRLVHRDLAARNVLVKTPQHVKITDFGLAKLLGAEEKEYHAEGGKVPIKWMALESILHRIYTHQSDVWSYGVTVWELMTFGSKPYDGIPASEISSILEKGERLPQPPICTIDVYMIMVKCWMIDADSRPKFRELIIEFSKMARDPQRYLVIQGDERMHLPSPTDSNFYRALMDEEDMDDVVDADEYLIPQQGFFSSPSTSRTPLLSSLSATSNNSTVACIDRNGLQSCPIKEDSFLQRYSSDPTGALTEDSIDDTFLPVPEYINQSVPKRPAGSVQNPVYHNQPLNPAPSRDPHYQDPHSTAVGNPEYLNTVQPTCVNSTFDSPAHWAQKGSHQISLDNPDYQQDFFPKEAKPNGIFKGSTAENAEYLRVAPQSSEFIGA
Test: HotSpot radiometric kinase assay, inhibition of EGFR 746-750 mutant
Conditions: 33P ATP, room temperature, 120 m
Procedure: Biochemical Assays for inhibition of wild-type and mutant EGFRs Briefly, specific kinase/substrate pairs along with required cofactors were prepared in reaction buffer; 20 mM HEPES pH 7.5, 10 mM […], 1 mM EGTA, 0.02% Brij35, 0.02 mg/ml BSA, 0.1 mM Na3VO4, 2 mM DTT, 1% DMSO. […]
For each entry below, report its pIC50 value.
FYI, pIC50 means -log10 of a concentration in mol per litre.

Need pIC50, item "CCOc1nn([C@@H](C)CO)c2c1/C=C/c1n[nH]c3cnc(cc13)-c1c(C)nn(C)c1O[C@H](C)CN(CC)C2"
9.29

What value of pIC50 has been reported for the following compound? "CCOc1nn(CCO)c2c1/C=C/c1n[nH]c3cnc(cc13)-c1c(C)nn(C)c1O[C@@H](C)[C@H]1CCCN1C2"
9.48

Request the reported pIC50 associated with "CCOc1nn(CCO)c2c1/C=C/c1n[nH]c3cnc(cc13)-c1c(C)nn(C)c1OC[C@H](C)N(C(C)C)C2"
9.66

Which pIC50 is listed for "CCN1Cc2c(c(OCC#N)nn2[C@@H](C)CO)/C=C/c2n[nH]c3cnc(cc23)-c2c(C)nn(C)c2O[C@H](C)C1" ?
9.26

Suppose we examine the compound "Cc1nn(CCO)c2c1/C=C/c1n[nH]c3c(C)nc(cc13)-c1cnn(C)c1O[C@@H](C)CN(C)C2" ; what pIC50 value has been reported?
9.51

Given "CCOc1nn(CCO)c2c1/C=C/c1n[nH]c3cnc(cc13)-c1cnn(C)c1O[C@@H](C)CN(C1CC1)C2" , state its recorded pIC50.
9.82

Request the reported pIC50 associated with "CCOc1nn(CCO)c2c1/C=C/c1n[nH]c3cnc(cc13)-c1cnn(C)c1O[C@@H](C)CN(C(C)C)C2"
9.28

Can you share its pIC50? I mean this compound: "CCOc1nn(CCO)c2c1/C=C/c1n[nH]c3cnc(cc13)-c1c(C)nn(C)c1OC[C@H]1CCCN1C2"
9.49

Record request: pIC50 value, item "Cc1nn(C)c2c1-c1cc3c(n[nH]c3cn1)/C=C/c1c(OCC#N)nn(CCO)c1CN(C)C[C@H](C)O2"
9.52

Item under review: "CCOc1nn(CCO)c2c1/C=C/c1n[nH]c3cnc(cc13)-c1cnn(C)c1O[C@H](C)CN(CC)C2" . Reported pIC50?
10.05

Any idea what pIC50 was measured for "CCOc1nn(CCO)c2c1/C=C/c1n[nH]c3cnc(cc13)-c1c(C)nn(C)c1OC[C@@H](C)N(CC)C2" ?
9.35

Field request: pIC50 | item: "CCOc1nn(CCO)c2c1/C=C/c1n[nH]c3cnc(cc13)-c1c(C)nn(C)c1O[C@H](C)CN(CC)C2"
9.51

Item under review: "CCOc1nn([C@@H](C)CO)c2c1/C=C/c1n[nH]c3cnc(cc13)-c1c(C)nn(C)c1O[C@H](C)CN(C)C2" . Reported pIC50?
9.66

Requested read-out: pIC50. Entry: "Cc1nn(C)c2c1-c1cc3c(n[nH]c3cn1)/C=C/c1c(OCC#N)nn(CCO)c1CN(C)C[C@@H](C)O2"
9.54

Looking for the measured pIC50 of "CCN1CCOc2c(c(C)nn2C)-c2cc3c(n[nH]c3cn2)/C=C/c2c(OCC#N)nn([C@@H](C)CO)c2C1" , can you help?
9.44

Form field: reported pIC50 of "Cc1nn(C)c2c1-c1cc3c(n[nH]c3cn1)/C=C/c1c(OCC#N)nn([C@@H](C)CO)c1CN1CCC[C@@H]1CO2"
9.39

Recorded pIC50 for "CCOc1nn([C@@H](C)CO)c2c1/C=C/c1n[nH]c3c(C)nc(cc13)-c1c(C)nn(C)c1O[C@@H](C)CN(C)C2" , please?
9.17

Reported pIC50, compound "CCOc1nn(CCO)c2c1/C=C/c1n[nH]c3cnc(cc13)-c1cnn(C)c1O[C@@H](C)CN(CC)C2" : ____
9.92

Record request: pIC50 value, item "CCN1Cc2c(c(C)nn2CCO)/C=C/c2n[nH]c3cnc(cc23)-c2c(C)nn(C)c2O[C@H](C)C1"
9.33

Name the recorded pIC50 for "CCOc1nn(CCO)c2c1/C=C/c1n[nH]c3cnc(cc13)-c1c(C)nn(C)c1O[C@@H](C)CN(CC)C2" .
9.22

Look up pIC50: "CCOc1nn([C@@H](C)CO)c2c1/C=C/c1n[nH]c3cnc(cc13)-c1c(C)nn(C)c1OCCN(C)C2"
9.43

Form field: reported pIC50 of "CCN1Cc2c(c(OCC#N)nn2CCO)/C=C/c2n[nH]c3cnc(cc23)-c2c(C)nn(C)c2O[C@@H](C)C1"
9.44

Fill blank: measured pIC50 of the compound "CCN1Cc2c(c(OC(C)C)nn2CCO)/C=C/c2n[nH]c3cnc(cc23)-c2cnn(C)c2O[C@@H](C)C1" is ____.
9.17

May I ask what pIC50 has been recorded for "Cc1nn(C)c2c1-c1cc3c(n[nH]c3cn1)/C=C/c1c(C#N)nn([C@@H](C)CO)c1CN(C)C[C@H](C)O2" ?
9.74

What does the record list as pIC50 for "Cc1nn(C)c2c1-c1cc3c(n[nH]c3cn1)/C=C/c1c(OCC#N)nn(CCO)c1CN(C)[C@H](C)CO2" ?
9.92

What value of pIC50 has been recorded for this entry: "CCc1nn(CCO)c2c1/C=C/c1n[nH]c3cnc(cc13)-c1c(C)nn(C)c1O[C@H](C)CN(CC)C2"
9.60

Query (compound): "CCN1Cc2c(c(OC(C)C)nn2CCO)/C=C/c2n[nH]c3cnc(cc23)-c2cnn(C)c2O[C@H](C)C1" ; field requested: pIC50
9.19

Please give the measured pIC50 for this compound: "CCN1Cc2c(c(OCC#N)nn2[C@@H](C)CO)/C=C/c2n[nH]c3cnc(cc23)-c2c(C)nn(C)c2O[C@@H](C)C1"
9.25

I'd like to know its pIC50. The compound in question is "Cc1nn(C)c2c1-c1cc3c(n[nH]c3c(C)n1)/C=C/c1c(OCC#N)nn([C@@H](C)CO)c1CN(C)C[C@H](C)O2"
9.68
